The reported measurements were obtained from paper PMC12721328.

Biological target: MSH2 (MutSβ subunit);MSH3 (MutSβ subunit) (human;human, UniProt P43246;P20585 1-934;1-1137, |)
Experiment: SPR; 10 mM Mg2+; FAN1 SPR: 20 mM Tris-HCl pH 7.6, 70 mM NaCl, 10 mM CaCl2, 1 mM EDTA, 0.01% P-20, 1 mM DTT, 0.05 mg/ml BSA, 5°C; MutSβ SPR: 10 mM Tris-HCl pH 7.6, 150 mM NaCl, 10 mM MgCl2, 1 mM EDTA, 1 mM DTT, 0.005% P-20 (samples held at 10°C)
Details: protein: recombinant;recombinant; tags: ;; copies: 1;1; label: 5'-biotin on strand 1; 5'-digoxigenin on strand 2; central 3-nt extrusion in strand 1, 20 bp each side, blunt
endpoint: pKd
pKd here is simply -log10 of the concentration when that concentration is written in mol/L.

Problem: # query: pKd of entry (CAG)1 extrusion mr78 (dsDNA) DNA 1: CGAATTTCTAGACTCGAGATCAGCTGCTAGGTCGAGTCTAGAG DNA 2: CTCTAGACTCGACCTAGCAGATCTCGAGTCTAGAAATTCG
Result: 9.30
